All figures here come from patent US9522888B2.

biological target: S1P1 (membranes prepared from S1P1/CHO cells) (Homo sapiens (Human)); experiment: Receptor [35S] GTPγS binding assay (S1P1 GTPγS); format: biochemical; conditions: phosphate examples; read-out: S1P1 GTPγS
Sequence (P21453 whole entry): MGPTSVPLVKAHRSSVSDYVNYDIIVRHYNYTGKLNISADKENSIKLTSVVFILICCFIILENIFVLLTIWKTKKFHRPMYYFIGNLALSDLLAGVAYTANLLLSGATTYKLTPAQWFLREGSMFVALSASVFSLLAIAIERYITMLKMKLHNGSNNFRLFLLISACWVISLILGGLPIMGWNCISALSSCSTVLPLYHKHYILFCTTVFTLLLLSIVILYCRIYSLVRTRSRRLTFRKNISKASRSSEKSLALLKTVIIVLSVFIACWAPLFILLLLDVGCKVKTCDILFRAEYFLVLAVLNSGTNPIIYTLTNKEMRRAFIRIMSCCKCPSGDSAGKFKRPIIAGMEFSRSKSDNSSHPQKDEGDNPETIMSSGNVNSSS
MEASUREMENT TYPE: EC50

# EC50 lookup, item CCOc1cccc(CO[C@@H]2CCc3cc([C@H]4CC[C@](N)(COP(=O)(O)O)C4)ccc3C2)c1
< 10 nM

# EC50 lookup, item CCCCCCC1CCc2cc([C@@H]3CC[C@](N)(COP(=O)(O)O)C3)ccc2O1 (stereo partly drawn)
10 to 100 nM

# EC50 lookup, item COc1ccccc1CCC[C@@H]1CCc2cc([C@H]3CC[C@](N)(COP(=O)(O)O)C3)ccc2C1
100 to 1000 nM

# EC50 lookup, item N[C@]1(COP(=O)(O)O)CC[C@@H](c2ccc3c(c2)CC[C@@H](CSc2ccccc2)C3)C1
100 to 1000 nM
